Entries and their measured IC50 follow.
Molecular target: CDK6/cyclin D1 (Homo sapiens)
Sequence (Q00534 whole entry, species assumed): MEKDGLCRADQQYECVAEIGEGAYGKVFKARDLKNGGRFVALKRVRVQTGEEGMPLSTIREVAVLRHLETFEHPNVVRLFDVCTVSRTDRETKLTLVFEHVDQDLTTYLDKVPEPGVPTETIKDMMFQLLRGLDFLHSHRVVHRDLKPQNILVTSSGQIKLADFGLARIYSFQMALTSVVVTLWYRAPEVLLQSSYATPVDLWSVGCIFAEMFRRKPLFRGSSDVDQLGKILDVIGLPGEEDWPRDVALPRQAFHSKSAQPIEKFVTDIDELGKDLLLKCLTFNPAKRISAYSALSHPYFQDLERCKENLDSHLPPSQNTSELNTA
Sequence (P24385 whole entry partner, species assumed): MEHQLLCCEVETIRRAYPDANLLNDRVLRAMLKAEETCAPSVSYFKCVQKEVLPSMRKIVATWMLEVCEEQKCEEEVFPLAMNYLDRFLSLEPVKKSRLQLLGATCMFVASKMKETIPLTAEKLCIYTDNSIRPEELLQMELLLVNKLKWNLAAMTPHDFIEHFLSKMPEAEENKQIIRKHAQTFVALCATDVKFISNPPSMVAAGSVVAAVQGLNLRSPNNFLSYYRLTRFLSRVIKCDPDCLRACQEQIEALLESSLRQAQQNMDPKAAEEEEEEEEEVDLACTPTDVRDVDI
Experiment: Biochemical kinase inhibition test, CDK6/cyclin D1 (similar method)
Conditions: three-fold serial dilution from 10 μM; 10 μM ATP; read-out: CDK6/D1 (nM), enzyme inhibitory activity IC50
measurement kind: IC50

[[record]]
substance_smiles = "CC(C)n1ncc2ccc3cnc(Nc4ccc(N5CCC6(CC5)CNC6)cn4)nc3c21"
measurement_kind = "IC50"
readout_value = "1 to 5 nM"

[[record]]
substance_smiles = "CCN1CCN(c2ccc(Nc3ncc4ccc5cnn(C(C)C)c5c4n3)nc2C)CC1"
measurement_kind = "IC50"
readout_value = "< 1 nM"

[[record]]
substance_smiles = "CC(C)n1ncc2c(C#N)cc3cnc(Nc4cc(F)c(N5CCNCC5)cn4)nc3c21.Cl"
measurement_kind = "IC50"
readout_value = "10 to 20 nM"

[[record]]
substance_smiles = "CC(C)n1ncc2ccc3cnc(Nc4ccc(N5C[C@@H](C)O[C@@H](C)C5)cn4)nc3c21"
measurement_kind = "IC50"
readout_value = "5 to 10 nM"

[[record]]
substance_smiles = "Cl.c1cc(Nc2ncc3ccc4cnn(C5CC5)c4c3n2)ncc1N1CCNCC1"
measurement_kind = "IC50"
readout_value = "5 to 10 nM"

[[record]]
substance_smiles = "CCN1CCN(c2ccc(Nc3ncc4ccc5cnn(C6CC6)c5c4n3)nc2)CC1"
measurement_kind = "IC50"
readout_value = "5 to 10 nM"

[[record]]
substance_smiles = "CC(=O)c1cc2cnc(Nc3cc(F)c(N4CCNCC4)cn3)nc2c2c1cnn2C(C)C.Cl"
measurement_kind = "IC50"
readout_value = "5 to 10 nM"

[[record]]
substance_smiles = "Cc1nc(Nc2ncc3ccc4cnn(C5CCCC5)c4c3n2)ccc1N1CCOCC1"
measurement_kind = "IC50"
readout_value = "1 to 5 nM"

